Listed molecules paired with reported Ki
- TEST_TARGET: human FLAP (Homo sapiens (Human))
- EXPERIMENT_DESCRIPTION: FLAP binding assay (HTRF format)
- PROTOCOL_CONDITIONS: wild type FLAP, HTRF format
Structures can show the parent of a compound that is named as a salt.
Please give a number only; it is taken to be in nM.

Example entries and their recorded answers appear below.
N#Cc1cccc(Oc2ccccc2-c2ccc(-c3cnc(N)nc3)c(F)c2)n1    14.6
CC(C)(C)NS(=O)(=O)c1ccccc1-c1ccc(-c2nnc(N)s2)c(F)c1    1
CC(C)(C)NS(=O)(=O)c1ccccc1-c1ccc(-c2ccc3nccnc3c2)c(F)c1    86
Cc1nc(N)ncc1-c1ccc(-c2ccccc2S(=O)(=O)NC(C)(C)C)cc1F [Example 454, trifluoroacetic acid salt]    12
CC(C)(C)NS(=O)(=O)c1ccccc1-c1ccc(-c2cnc3[nH]cnc3n2)c(F)c1    3
Nc1cnc(-c2ccc(-c3cccnc3OCC3CC3)cc2F)cn1    97
C[C@@H](O)CNS(=O)(=O)c1ccccc1-c1cnc(-c2cnc(N)nc2)c(F)c1    134
Nc1cnc(-c2ccc(-c3ccccc3C(=O)N3CC[C@@H](O)C3)cc2F)cn1    1540

If you can, please state the reported Ki value of CC(C)(C)NS(=O)(=O)c1ccccc1-c1ccc(-c2cnc(N)nc2)nc1 .
49.5

If you can, please state the reported Ki value of Nc1ncc(-c2ccc(-c3ccccc3S(=O)(=O)CC3CC3)cc2F)cn1 .
781

If you can, please state the reported Ki value of CC(CO)Oc1ncccc1-c1ccc(-c2cnc(N)cn2)c(F)c1 (stereo in doubt) [Example 657] .
73.5

If you can, please state the reported Ki value of Nc1cnc(-c2ccc(-c3ccccc3NS(=O)(=O)c3ccccc3)cc2F)cn1 .
6

If you can, please state the reported Ki value of CC(C)(C)OC(=O)N1CCC(COc2ncccc2-c2ccc(-c3cnc(N)cn3)c(F)c2)C1 (stereo not drawn) .
135

If you can, please state the reported Ki value of Nc1ccnc(Oc2ccccc2-c2ccc(-c3cnc(N)nc3)c(F)c2)n1 .
36

If you can, please state the reported Ki value of Nc1cnc(-c2ccc(-c3ccc(OC(F)(F)F)cc3F)cc2F)cn1 .
250

###

- TEST_TARGET: UniProt:P20292
- EXPERIMENT_DESCRIPTION: FLAP binding assay (HTRF format)
- PROTOCOL_CONDITIONS: wild type FLAP, HTRF format
ENDPOINT_LABEL: Ki

Example entries and their recorded answers appear below.
C[C@@H](CO)NC(=O)c1ccccc1-c1ccc(-c2cnc(N)nc2)c(F)c1 [Example 517]    > 10 µM
CC(C)(C)C(=O)Nc1ncccc1-c1ccc(-c2cnc3[nH]ccc3c2)c(F)c1 [Example 802]    > 10 µM

Turning to the following compound.
If you can, please state the reported Ki value of CC(=O)Nc1ccccc1-c1ccc(-c2cnc(N)cn2)c(F)c1 [Example 459] .
> 10 µM

###

Listed compounds paired with reported pKi
- TEST_TARGET: human FLAP (Homo sapiens (Human), UniProt P20292)
- Sequence (P20292 whole entry): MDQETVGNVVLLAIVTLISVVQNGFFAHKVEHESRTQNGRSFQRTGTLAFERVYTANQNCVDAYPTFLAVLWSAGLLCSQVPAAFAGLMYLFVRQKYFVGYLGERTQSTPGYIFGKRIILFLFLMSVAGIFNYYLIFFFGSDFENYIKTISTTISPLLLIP
- EXPERIMENT_DESCRIPTION: FLAP binding assay (HTRF format)
- PROTOCOL_CONDITIONS: wild type FLAP, HTRF format
Lab note: report pKi as minus log10 of the concentration in molar units, number only.

Example entries and their recorded answers appear below.
Nc1cnc(-c2ccc(-c3ccccc3S(=O)(=O)c3ccccc3)cc2F)cn1    7.80
N#CCOc1ccccc1-c1ccc(-c2cnc(N)nc2)c(F)c1    6.49

Record lookup: for human FLAP (Homo sapiens (Human), UniProt P20292), what pKi belongs to C[C@H](CO)NS(=O)(=O)c1ccccc1-c1ccc(-c2ncc(N)nc2C#N)c(F)c1 ?
7.86

Record lookup: for human FLAP (Homo sapiens (Human), UniProt P20292), what pKi belongs to Nc1cnc(-c2ccc(-c3ccc(C(F)(F)F)cc3F)cc2F)cn1 ?
6.60

Record lookup: for human FLAP (Homo sapiens (Human), UniProt P20292), what pKi belongs to CC(C)(O)Cn1cc(-c2ccccc2-c2ccc(-c3cnc(N)cn3)c(F)c2)cn1 ?
7.49

Record lookup: for human FLAP (Homo sapiens (Human), UniProt P20292), what pKi belongs to CC(C)(C)NS(=O)(=O)c1ccccc1-c1ccc(-c2cn3cccc(F)c3n2)c(F)c1 ?
7.26

Record lookup: for human FLAP (Homo sapiens (Human), UniProt P20292), what pKi belongs to CC(C)(C#N)S(=O)(=O)c1ccccc1-c1ccc(-c2cnc(N)cn2)c(F)c1 ?
7.49

Record lookup: for human FLAP (Homo sapiens (Human), UniProt P20292), what pKi belongs to Nc1ncc(-c2ccc(-c3ccc(C(F)(F)F)cc3Oc3ccnc(N)n3)cn2)cn1 ?
7.09

Record lookup: for human FLAP (Homo sapiens (Human), UniProt P20292), what pKi belongs to Nc1ncc(-c2ccc(-c3ccccc3Oc3ccnc(C(F)(F)F)c3)cc2F)cn1 ?
6.60

Record lookup: for human FLAP (Homo sapiens (Human), UniProt P20292), what pKi belongs to Cc1ccccc1-c1ccc(-c2cnc(N)cn2)c(F)c1 ?
6.21

###

- TEST_TARGET: UniProtKB P20292
- EXPERIMENT_DESCRIPTION: FLAP binding assay (HTRF format)
- PROTOCOL_CONDITIONS: wild type FLAP, HTRF format
ENDPOINT_LABEL: Ki

Example entries and their recorded answers appear below.
Nc1ncc(-c2ccc(-c3ccccc3S(=O)(=O)c3cnccn3)cc2F)cn1    > 10 µM
Nc1cnc(-c2ccc(-c3cccnc3OCC3CCNC3)cc2F)cn1 (centres unmarked)    > 10 µM
CS(=O)(=O)Nc1ccccc1-c1ccc(-c2cnc(N)cn2)cc1    > 10 µM
Nc1cnc(-c2ccc(-c3ccccc3S(N)(=O)=O)cc2)cn1    > 10 µM

Turning to the following molecule.
If you can, please state the reported Ki value of Nc1cnc(-c2ccc(-c3ccc(Br)cc3F)cc2F)cn1 .
~0.25 µM

###

- TEST_TARGET: human FLAP (Homo sapiens (Human), UniProt P20292)
- EXPERIMENT_DESCRIPTION: FLAP binding assay (HTRF format)
- PROTOCOL_CONDITIONS: human FLAP wild type, HTRF format; average of two plates, duplicates
Just a reminder that ties go to not satisfied: only Ki strictly below 3 nM counts as satisfied.

Determine if CS(=O)(=O)c1ccccc1-c1ccc(-c2ccc(N)nc2)c(F)c1 [Example 341] shows Ki strictly lower than 3 nM.
not satisfied

Determine if Nc1cnc(-c2ccc(-c3ccccc3S(=O)(=O)N3C[C@@H]4C(N)[C@@H]4C3)cc2F)cn1 (stereo partly drawn) [Example 143] shows Ki strictly lower than 3 nM.
not satisfied

Determine if CS(=O)(=O)c1ccccc1-c1ccc(-c2cnc3c(c2)OCCN3)c(F)c1 [Example 385] shows Ki strictly lower than 3 nM.
not satisfied

Determine if Nc1cnc(-c2ccc(-c3ccccc3S(=O)(=O)N3CC[C@@H](CO)C3)cc2F)cn1 [Example 111] shows Ki strictly lower than 3 nM.
not satisfied

Determine if CC(CO)NS(=O)(=O)c1ccccc1-c1ccc(-c2cnc3[nH]ccc3n2)c(F)c1 (stereo in doubt) [Example 380] shows Ki strictly lower than 3 nM.
satisfied

###

- TEST_TARGET: human FLAP (Homo sapiens (Human))
- EXPERIMENT_DESCRIPTION: FLAP binding assay (HTRF format)
- PROTOCOL_CONDITIONS: wild type FLAP, HTRF format
- Procedure: The ability of the compounds of the present invention to treat a FLAP-mediated disease and/or disorder, or associated symptoms or complications thereof, was determined using the following procedures. Binding assay data represent the average value obtained from two different assay plates, with samples run in duplicate on each plate. Human whole blood assay data represent a single replicate on an assay plate using whole blood from at least one healthy donor. Data are expressed as a HTRF ratio.
Just a reminder that ties go to not fulfilled: only Ki strictly below 10 nM counts as fulfilled.

Previously resolved entries follow.
Nc1ncc(-c2ccc(-c3ccccc3S(=O)(=O)N3CCCC(CO)C3)cc2F)cc1F (racemic)    not fulfilled
Nc1cc(Oc2ccccc2-c2ccc(-c3cnc(N)nc3)c(F)c2)ccn1    fulfilled
COc1ncc(-c2ccccc2-c2ccc(-c3cnc(N)cn3)c(F)c2)cn1    not fulfilled

Determine if CC(C)(C)NS(=O)(=O)c1ccccc1-c1ccc(-c2cnc(N)cn2)cc1F shows Ki strictly lower than 10 nM.
not fulfilled

###

- TEST_TARGET: human FLAP (Homo sapiens (Human), UniProt P20292)
- EXPERIMENT_DESCRIPTION: FLAP binding assay (HTRF format)
- PROTOCOL_CONDITIONS: human FLAP wild type, HTRF format; average of two plates, duplicates
Listed compounds paired with reported Ki

Example entries and their recorded answers appear below.
CS(=O)(=O)N1CCN(S(=O)(=O)c2ccccc2-c2ccc(-c3cnc(N)cn3)c(F)c2)CC1 [Example 56]    11 nM
Nc1cnc(-c2ccc(-c3ccccc3S(=O)(=O)N[C@@H](CO)c3ccccc3)cc2F)cn1 [Example 82]    1 nM
Nc1ccc(-c2ccc(-c3ccccc3S(=O)(=O)N3C[C@@H]4C[C@H]3CO4)cc2F)cn1 [Example 356]    32 nM

If you can, please state the reported Ki value of Nc1cnc(-c2ccc(-c3ccccc3S(=O)(=O)N3CCCC(CCO)C3)cc2F)cn1 (racemic) [Example 71] .
2 nM
